assay: yeast display, Sf9 membrane polyspecificity reagent, FACS + sequencing; frameworks hold sequencing errors
quantity: polyreactivity (PSR sort gate)

input_sequence=QVQLVETGGGLVQAGGSLRLSCAASGFTFWYNDMGWYRQPPGKEREFVAAINSGGSTNDADSVKGRFTISRDNAKNTVYLQMNSLKPEDTAVYYCNADWFTPAQPWYRYFIRYDYWGQGTQVTVSS result="low polyreactivity"
input_sequence=QVQLVESGGGLVQAGGSLRLSCAASGIIFYDYAMGWYRPAPGKERELVAAINYSGGSTYYADSVKGRFTISRDNAKNTVYLQMNSLKPEDTAVYYCAADNAVWEYDYWGQGSQVTVSS result="low polyreactivity"
